Assay: Kinetic solubility in buffered solutions
Format: physicochemical
Conditions: sodium phosphate buffer, aqueous buffer, kinetic from dmso stock; pH 7.4, 75 mM sodium phosphate, 24 hours ambient; read-out: pH 7.4 solubility
quantity_measured: solubility kinetic at 24 h (µg/mL)

P: C[C@H]1CCCCN1c1ncc(-c2nccc(NC(=O)Cn3cnc4c3c(=O)n(C)c(=O)n4C)n2)cn1
Q: C[C@H]1CCCN1c1ncc(-c2nccc(NC(=O)[C@H](C)n3cnc4c3c(=O)n(C)c(=O)n4C)n2)cn1
R: C[C@@H](C(=O)Nc1ccnc(-c2cnc(N3CCC[C@H]3C(F)(F)F)nc2)n1)n1cnc2c1c(=O)n(C)c(=O)n2C
Q: Rank the 3 molecules: largest solubility kinetic at 24 h first, smallest last. A ranking is expressed here by listing the labels in the requested order.
A: R, Q, P
(R: 71 µg/mL, Q: 20 µg/mL, P: 12 µg/mL)

a: C[C@H]1CCCN1c1ncc(-c2nccc(NC(=O)Cn3cnc4c3c(=O)n(C)c(=O)n4C)n2)cn1
b: [2H]C([2H])([2H])n1c(=O)n(C)c(=O)c2c1ncn2CC(=O)Nc1ccnc(-c2cnc(N3CCC[C@@H]3C)nc2)n1
Q: Please indicate which has the smaller reported solubility kinetic at 24 h: a , or b . Response format: the label of the selected entry.
A: a
(a: 10 µg/mL, b: 29 µg/mL)

P: C[C@H](C(=O)Nc1ccnc(-c2cnc(N3CCC[C@@H]3C)nc2)n1)n1cnc2c1c(=O)n(C)c(=O)n2C
Q: Cn1c(=O)c2c(ncn2CC(=O)Nc2ccnc(-c3cnc(N4CCCC4(C)C)nc3)n2)n(C)c1=O
R: C[C@@H](C(=O)Nc1ccnc(-c2cnc(N3CCCC3(C)C)nc2)n1)n1cnc2c1c(=O)n(C)c(=O)n2C
Q: Order the records by solubility kinetic at 24 h, with each subsequent value no larger than the one before. Labels, requested order.
A: P, Q, R
(P: 89 µg/mL, Q: 41 µg/mL, R: 3 µg/mL)
